# Tested on: Streptococcus sp. 'group B'
# EXPERIMENT_SUMMARY: Antimicrobial activity against group B Streptococcus sp. 'group B' isolate 4214-03 by broth dilution method
# Format: functional
# MIC per record follows
Numbers only here, please. The scale is µg/mL.

COMPOUND	MIC / µg/mL
CC1(C)S[C@@H]2[C@H](NC(=O)Cc3ccccc3)C(=O)N2[C@H]1C(=O)O [PENICILLIN G]	0.12
CO[C@@]1(NC(=O)Cc2cccs2)C(=O)N2C(C(=O)O)=C(COC(N)=O)CS[C@@H]21 [CEFOXITIN]	4
CO/N=C(\C(=O)N[C@@H]1C(=O)N2C(C(=O)O)=C(COC(N)=O)CS[C@H]12)c1ccco1 [CEFUROXIME]	0.12
CC1(C)S[C@@H]2[C@H](NC(=O)[C@H](N)c3ccccc3)C(=O)N2[C@H]1C(=O)O [AMPICILLIN]	0.25

For CO/N=C(\C(=O)N[C@@H]1C(=O)N2C(C(=O)O)=C(COC(C)=O)CS[C@H]12)c1csc(N)n1 [CEFOTAXIME] , what is its reported MIC?
0.12

Another compound to look at: Cc1nnc(SCC2=C(C(=O)O)N3C(=O)[C@@H](NC(=O)Cn4cnnn4)[C@H]3SC2)s1 [CEFAZOLIN]
0.5
